The reported numbers originate from patent US11453647B2.

test_target: UniProt:P29275
Sequence (P29275 1-332): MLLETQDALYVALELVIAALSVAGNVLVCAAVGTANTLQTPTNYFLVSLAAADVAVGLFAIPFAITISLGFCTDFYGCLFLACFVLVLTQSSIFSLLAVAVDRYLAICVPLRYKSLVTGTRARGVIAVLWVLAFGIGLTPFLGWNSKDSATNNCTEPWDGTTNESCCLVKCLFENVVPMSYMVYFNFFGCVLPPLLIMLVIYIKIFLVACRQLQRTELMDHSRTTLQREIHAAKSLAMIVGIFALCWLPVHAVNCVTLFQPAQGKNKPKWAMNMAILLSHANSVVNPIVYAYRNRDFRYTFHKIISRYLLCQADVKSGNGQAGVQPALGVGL
protocol_details: functional cAMP (HTRF) assay, recombinant HEK293 cells expressing human A2B receptor, agonist NECA
measured_quantity: IC50

These solved cases illustrate the format of a correct answer.
COc1ccc(C2=CCOCC2)c2nc(NC(=O)C3CC3)[nH]c12 [compound 314]
< 1000 nM
COc1ccc(-c2ccccc2)c2nc(NC(=O)c3c[nH]cn3)[nH]c12 [compound 253]
< 10 nM
COCCn1cc(C(=O)Nc2nc3c(-c4cccc5[nH]ncc45)ccc(OC)c3[nH]2)cn1 [compound 279]
< 100 nM
COc1ccc(N2CCOCC2)c2nc(NC(=O)c3cnn(C)c3)[nH]c12 [compound 136]
> 1000 nM
COc1ccc(-c2cnn(C)c2)c2nc(NC(=O)c3ccc(OC(F)(F)F)cc3)[nH]c12 [compound 94]
< 1000 nM
COc1ccc(-c2cnn(C)c2)c2nc(NC(=O)N3CC[C@@]4(CCCOC4)C3)[nH]c12 [compound 114]
> 1000 nM
COc1ccc(-c2ccccc2)c2nc(NC(=O)N3CCC(C)CC3)[nH]c12 [compound 28]
< 1000 nM
COc1ccc(C2CCOCC2)c2nc(NC(=O)c3ccnc(N4CC[C@@]5(CCOC5)C4)c3)[nH]c12 [compound 153]
> 1000 nM
COc1ccc(C2CCOCC2)c2nc(NC(=O)c3ccc4c(c3)CCO4)[nH]c12 [compound 108]
< 1000 nM
COc1ccc(C2CCCCC2)c2nc(NC(=O)N3CCC(C)(O)CC3)[nH]c12 [compound 16]
> 1000 nM

Query string: Give the value of IC50 reported for the following: COc1ccc(N2CCOCC2)c2nc(NC(=O)c3cnn(C(CO)CCl)c3)[nH]c12 (stereo not drawn) [compound 86]
Result string: > 1000 nM

Query string: Give the value of IC50 reported for the following: COc1ccc(-c2cnn(C)c2)c2nc(NC(=O)c3ccc(N4C(=O)CCC4=O)cc3)[nH]c12 [compound 248]
Result string: < 100 nM

Query string: Give the value of IC50 reported for the following: COCCOc1cccc(-c2ccc(OC)c3nc(NC(=O)N4CCC(C)(O)CC4)[nH]c23)c1 [compound 236]
Result string: < 100 nM

Query string: Give the value of IC50 reported for the following: COc1ccc(-c2ccccc2)c2nc(NC(=O)c3cnc4ncccn34)[nH]c12 [compound 289]
Result string: < 10 nM

Query string: Give the value of IC50 reported for the following: COc1ccc(-c2cnn(C)c2)c2nc(NC(=O)N3CC[C@H](F)C3)[nH]c12 [compound 221]
Result string: < 100 nM
